# System: LOC_OS07G06570-cb004;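 also: purified Escherichia coli-expressed rice kinase domain construct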
# assayDetails: thermal shift delta Tm vs DMSO control; higher = stronger stabilization (binding)
# cond: 12.5 µM; protein concentration 2 µM
# binning rule on thermal shift delta Tm: range A: < 0.7 °C; range B: ≥ 0.7 °C and < 1 °C; range C: ≥ 1 °C

Sample answers from the record:
>  <compound>
c1cc(-c2cnn3cc(-c4ccc(OCCN5CCCCC5)cc4)cnc23)ccn1 [Dorsomorphin 2HCl]

>  <category>
range C

$$$$
>  <compound>
CCn1c(=O)c(-c2ccc(Cl)cc2Cl)cc2cnc(Nc3ccc(N4CCNCC4)c(F)c3)nc21

>  <category>
range C

$$$$
>  <compound>
CN1CCN(c2ccc3nc(-c4c(N)c5c(F)cccc5[nH]c4=O)[nH]c3c2)CC1 [Dovitinib (TKI-258, CHIR-258)]

>  <category>
range C

$$$$
>  <compound>
COc1cc2ncc(-c3ccccc3)nc2cc1OC

>  <category>
range C

$$$$

Band of CN1CCC(CNc2ccc3ncc(-c4cccc(OC(F)(F)F)c4)n3n2)CC1 [SGI-1776 free base] ?
range A

Band of `COc1cc2ccc(=O)oc2cc1O` ?
range C

Each recorded value in this set is attributed to the supplement of paper PMC9694430.
